Every entry's value here was drawn from ChEMBL document CHEMBL1128471.

target: Potassium-transporting ATPase (Sus scrofa); test: Inhibition of K+ -stimulated gastric ATPase activity was measured using lyophilized gastric vesicles at pH 7
Sequence (P18434 whole entry): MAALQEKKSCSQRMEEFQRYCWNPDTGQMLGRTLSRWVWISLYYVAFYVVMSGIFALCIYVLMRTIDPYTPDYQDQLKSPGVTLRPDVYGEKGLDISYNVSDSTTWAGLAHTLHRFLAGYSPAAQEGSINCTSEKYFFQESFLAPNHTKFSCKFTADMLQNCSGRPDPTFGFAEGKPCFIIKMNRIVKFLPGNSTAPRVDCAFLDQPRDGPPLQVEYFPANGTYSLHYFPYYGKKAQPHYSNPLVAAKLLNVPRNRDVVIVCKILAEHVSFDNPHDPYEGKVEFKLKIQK
Sequence (P19156 whole entry): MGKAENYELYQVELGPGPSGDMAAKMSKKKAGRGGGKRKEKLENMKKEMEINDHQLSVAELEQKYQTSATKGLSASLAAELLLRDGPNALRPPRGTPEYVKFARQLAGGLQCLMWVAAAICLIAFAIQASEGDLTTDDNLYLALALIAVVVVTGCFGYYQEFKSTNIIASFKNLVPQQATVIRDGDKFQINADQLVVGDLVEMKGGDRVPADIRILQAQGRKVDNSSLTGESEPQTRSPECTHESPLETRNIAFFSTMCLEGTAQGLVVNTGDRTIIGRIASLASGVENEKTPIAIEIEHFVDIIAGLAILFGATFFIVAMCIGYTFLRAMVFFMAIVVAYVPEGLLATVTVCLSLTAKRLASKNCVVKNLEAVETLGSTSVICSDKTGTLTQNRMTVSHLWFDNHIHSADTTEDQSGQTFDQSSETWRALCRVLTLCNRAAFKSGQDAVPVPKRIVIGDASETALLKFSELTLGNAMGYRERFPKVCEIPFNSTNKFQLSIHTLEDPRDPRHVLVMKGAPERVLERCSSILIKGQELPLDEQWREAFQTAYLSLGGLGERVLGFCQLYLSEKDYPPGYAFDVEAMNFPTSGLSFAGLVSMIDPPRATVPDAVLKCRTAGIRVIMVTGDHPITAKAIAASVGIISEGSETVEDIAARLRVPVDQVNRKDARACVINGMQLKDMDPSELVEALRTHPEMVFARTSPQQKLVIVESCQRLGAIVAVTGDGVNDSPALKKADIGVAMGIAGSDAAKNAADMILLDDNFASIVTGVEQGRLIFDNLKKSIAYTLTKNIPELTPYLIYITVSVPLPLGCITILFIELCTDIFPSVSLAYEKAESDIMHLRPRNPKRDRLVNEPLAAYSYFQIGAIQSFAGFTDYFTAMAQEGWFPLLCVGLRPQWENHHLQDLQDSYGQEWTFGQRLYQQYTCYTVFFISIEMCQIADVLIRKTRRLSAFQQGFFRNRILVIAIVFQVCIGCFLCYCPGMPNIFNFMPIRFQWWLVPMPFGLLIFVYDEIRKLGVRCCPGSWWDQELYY
pIC50: −log10 of the molar value.
Think of 6 as a floor: if pIC50 stands on it or above, it is yes (1); beneath it, no (0).

structure=CCCC(=O)c1cnc2c(OC)cccc2c1Nc1ccccc1C category_label="no (0)"
structure=CCCC(=O)c1cnc2c(OC)cccc2c1Nc1ccc(C)cc1C category_label="no (0)"
structure=CCCC(=O)c1cnc2c(C)cccc2c1Nc1ccc(OC)cc1OC category_label="no (0)"
structure=CCCC(=O)c1cnc2c(OCCCC(=O)Nc3ccncc3)cccc2c1Nc1ccccc1C category_label="no (0)"
structure=CCCC(=O)c1cnc2c(OCCCC(=O)OCC)cccc2c1Nc1ccccc1C category_label="no (0)"
structure=CCCC(=O)c1cnc2c(OC)cccc2c1Nc1ccc(O)cc1C category_label="yes (1)"
